species: Rattus norvegicus; assay: DrugMatrix - Regimen: Daily Repeat; type: toxicity, organism-based, Sprague-Dawley; set-up: regimen Daily Repeat, gender Male, age 6-8 weeks; conditions: in vivo, po, 0 mg/kg, 72 h, tissue Blood, route oral GAVAGE, dose level Control, time 3 day, vehicle .5 % CMC
measurementType: MEAN CORPUSCULAR HEMOGLOBIN (pg)
Dear colleague, please return just the value in pg, with no unit written.

## Input # MEAN CORPUSCULAR HEMOGLOBIN lookup, item CC(C(=O)O)c1ccc(-c2ccccc2)c(F)c1 (stereo not drawn) [FLURBIPROFEN]
## Output 23.37

## Input Please give the result for `COc1ccc(/C=C/C(=O)Nc2ccccc2C(=O)O)cc1OC` too.
## Output 23.37

## Input Similarly, `CC[C@]1(O)CC[C@H]2[C@@H]3CCC4=CCCC[C@@H]4[C@H]3CC[C@@]21C` ?
## Output 20.57

## Input Can you check CC(C)(Sc1cc(C(C)(C)C)c(O)c(C(C)(C)C)c1)Sc1cc(C(C)(C)C)c(O)c(C(C)(C)C)c1 [PROBUCOL] next?
## Output 23.37

## Input Next up: Clc1cc2c(cc1Cl)Oc1cc(Cl)c(Cl)cc1O2 [2,3,7,8-TETRACHLORODIBENZO-P-DIOXIN]
## Output 20.2

## Input Also need C[C@@H](O)[C@H]1C(=O)N2C(C(=O)O)=C(S[C@@H]3CN[C@H](C(=O)N(C)C)C3)[C@H](C)[C@H]12 [MEROPENEM] , thanks.
## Output 23.37

## Input Continue with C[C@@H]1CC[C@H]2[C@@H](C)C(=O)O[C@@H]3O[C@@]4(C)CC[C@@H]1[C@]32OO4 [ARTEMISININ]
## Output 24.6

## Input Another compound to look at: COc1ccccc1OCC(O)COC(N)=O (stereo not drawn) [METHOCARBAMOL]
## Output 24.6

----------
species on record: Rattus norvegicus; experiment: DrugMatrix - Regimen: Daily Repeat; format: toxicity, organism-based, Sprague-Dawley; parameters: regimen Daily Repeat, gender Male, age 6-8 weeks; settings: in vivo, po, 0 mg/kg, 72 h, tissue Blood, route oral GAVAGE, dose level Control, time 3 day, vehicle 100 % SALINE
measurementType: MEAN CORPUSCULAR HEMOGLOBIN CONCENTRATION (G/DL)
Number only, in G/DL; omit the unit.

Solved cases below.
- molecule: "CCCc1nn(C)c2c(=O)[nH]c(-c3cc(S(=O)(=O)N4CCN(C)CC4)ccc3OCC)nc12"
  unitOfMeasurement: "G/DL"
  experimentalResult: 38.98
- molecule: "Cc1cc(CC(=O)O)n(C)c1C(=O)c1ccc(Cl)cc1 [ZOMEPIRAC]"
  unitOfMeasurement: "G/DL"
  experimentalResult: 40.22
- molecule: "CC(=O)OCC(CCn1cnc2cnc(N)nc21)COC(C)=O [FAMCICLOVIR]"
  unitOfMeasurement: "G/DL"
  experimentalResult: 38.98

## Input # MEAN CORPUSCULAR HEMOGLOBIN CONCENTRATION lookup, item Oc1ccccc1O [CATECHOL]
## Output 40.22

----------
The following compounds are listed with their measured ALBUMIN values.
organism: Rattus norvegicus; test: DrugMatrix - Regimen: Daily Repeat; assay type: toxicity, organism-based, Sprague-Dawley; design: regimen Daily Repeat, gender Male, age 6-8 weeks; details: in vivo, po, 0 mg/kg, 120 h, tissue Plasma, route oral GAVAGE, dose level Control, time 5 day, vehicle 100 % WATER
Please reply with the bare figure in G/DL and do not write the unit itself.

Some solved entries appear below for comparison.
- sampleSmiles: "CCCCCCCCCCCCCCCC[n+]1ccccc1.[Br-]"
  ALBUMIN, G/DL: 4.08
- sampleSmiles: "Nc1ccc(S(=O)(=O)Nc2ncccn2)cc1"
  ALBUMIN, G/DL: 3.73
- sampleSmiles: "O=C(O)c1cc(=O)c2c(OCC(O)COc3cccc4oc(C(=O)O)cc(=O)c34)cccc2o1"
  ALBUMIN, G/DL: 3.63
- sampleSmiles: "CCOC(N)=O"
  ALBUMIN, G/DL: 4.33
- sampleSmiles: "CCCc1nn(C)c2c(=O)[nH]c(-c3cc(S(=O)(=O)N4CCN(C)CC4)ccc3OCC)nc12"
  ALBUMIN, G/DL: 4.07

## Input # ALBUMIN lookup, item `CC[C@H]1OC(=O)[C@H](C)[C@@H](O[C@H]2C[C@@](C)(OC)[C@@H](O)[C@H](C)O2)[C@H](C)[C@@H](O[C@@H]2O[C@H](C)C[C@H](N(C)C)[C@H]2O)[C@](C)(OC)C[C@@H](C)C(=O)[C@H](C)[C@@H](O)[C@]1(C)O`
## Output 4.07
